# Test system: MCF7 cells
# procedure text: Cell viability CellTiter-Glo, HER2-negative MCF7
# test conditions: unconjugated payload of the ADC
Assignment: determine reported Payload LD50 for the given compounds.
Numbers only, in nM.

The following compounds have reported results that may help.
# compound, target under test, result type, unit of measure, value
data = [
    ("CC(=O)N1CCC(n2nnc3c(F)cc(/C=C(\\C)[C@H]4OC(=O)C[C@H](O)CC[C@H](C)[C@@H](OC(=O)N5CCN(C)CC5)/C=C/[C@@H]4C)cc32)CC1", "MCF7 cells", "Payload LD50", "nM", 130.398),
    ("CC[C@H](O)[C@@H](C)[C@H]1O[C@@H]1C[C@H](C)/C=C/C=C(\\C)[C@H]1OC(=O)C[C@H](O)CC[C@@](C)(OC)[C@@H](OC(=O)N2CCNCC2)/C=C/[C@@H]1C", "MCF7 cells", "Payload LD50", "nM", 7.697),
    ("CC[C@H](O)[C@@H](C)[C@H]1O[C@@H]1C[C@@](C)(O)/C=C/C=C(\\C)[C@H]1OC(=O)C[C@H](O)CC[C@@](C)(OC(=O)N2CCNCC2)[C@@H](OC(C)=O)/C=C/[C@@H]1C", "MCF7 cells", "Payload LD50", "nM", 181.521),
]

Challenge: Return reported Payload LD50; argument: CC[C@H](O)[C@@H](C)[C@H]1O[C@@H]1C[C@@](C)(O)/C=C/C=C(\C)[C@H]1OC(=O)C[C@H](O)CC[C@@](C)(OC)[C@@H](OC(=O)N2CCN(C)CC2)/C=C/[C@@H]1C [D2]
Response given: 30.318
